// TGI lookup, one value per entry
# System: PC-3 prostate
# test.description: NCI tumour cell line growth inhibition, 48 h
measurement.kind: TGI

- Clc1ccc(Nc2nnc(CNc3ccc(-c4nnc(Nc5ccc(Cl)cc5)s4)cc3)s2)cc1: > 100 µM
- O=C(Nc1ccc([N+](=O)[O-])cc1)Nn1cnnc1: > 100 µM
- C[N+](C)(CCCCCC[N+](C)(C)CCCN1C(=O)c2cccc3cccc(c23)C1=O)CCCN1C(=O)c2cccc3cccc(c23)C1=O: > 100 µM

====

# System: MALME-3M melanoma
# test.description: NCI tumour cell line growth inhibition, 48 h
// TGI lookup, one value per entry
measurement.kind: TGI

• CC(C)(C)c1cc(CCC(=O)Nc2ccc(Cl)cc2)[nH]c(=S)n1 = > 100 µM
• CC1(C)CCN2C(=O)C34CCCC3CC21S4 (configuration not stated) = > 100 µM
• CCCCOCCOCCOC1=CC(=O)c2c(O)ccc(O)c2C1=O = 1.49 µM
• O=c1[nH]/c(=C/c2ccc3c(c2)OCO3)c(=O)[nH]/c1=C/c1ccc2c(c1)OCO2 = > 10 µM
• N#C/C(=C\c1ccncc1)c1csc2ccccc12 = > 96.2 µM
• O=C(c1ccc(O)cc1O)C1C(c2ccc(O)cc2)OC(c2ccc(O)cc2)C1C(=O)c1ccc(O)cc1O (configuration not stated) = 31.2 µM
• Cc1ccc(S(=O)c2cccs2)cc1 (configuration not stated) = > 100 µM
• O=C1C(Cl)N(c2c(Cl)cccc2Cl)C1c1c[nH]c2ccccc12 (configuration not stated) = > 100 µM
• O=c1[nH]nc(Cc2ccccc2)n1/N=C/c1cccs1 = > 100 µM
• Cc1cc(=O)oc2ccc(OC/C=C3\CCC(=O)O3)cc12 = 16.9 µM
• CC(C)/C=C1\CCC(CN(C)C)C1=O (configuration not stated) = 2.29 µM
• COc1cc2ccc3c4ccccc4cnc3c2cc1OC = > 100 µM
• O=C1C(c2ccccc2)=C(c2ccccc2)C(c2ccc(Cc3ccc(C4=C(c5ccccc5)C(=O)C(c5ccccc5)=C4c4ccccc4)cc3)cc2)=C1c1ccccc1 = > 100 µM
• Cc1c(C)c2c(c(N)c1C#N)C(=O)N(O)C2=O = > 100 µM
• CC(=O)OCC1OC(n2c(=S)n(-c3ccc([N+](=O)[O-])cc3)c(=O)c3ccccc32)C(OC(C)=O)C(OC(C)=O)C1OC(C)=O (configuration not stated) = 38.4 µM
• COc1ccc(C2=Nc3c(nc(OC)[nH]c3=O)NC(c3ccccc3)C2)cc1 (configuration not stated) = > 100 µM
• CCOC(=O)c1c[nH]c(C(=O)OCC)c1-c1cccn1-c1ccccc1 = 56.4 µM
• NC1NC=NC2C1N=CN2C1OC(CO)C2[O][Sn][O]C21 (configuration not stated) = > 100 µM
• OCC#CCNCl = > 100 µM
• NS(=O)(=O)c1ccc(Nc2cc(-c3ccc(O)c(F)c3)[nH]n2)cc1 = > 25 µM
• CSc1nc(=S)[nH]c2c1c(C)nn2-c1ccccc1 = 41.5 µM
• O=C1CCN2c3ccccc3[C@H]3Cc4cccc(c4[C@@H]2C3)CCO1 = > 100 µM

====

# Test system: SNB-75 CNS
# test.description: NCI tumour cell line growth inhibition, 48 h; in the data active = GI50 below about 0.43 µM; inactive = the rest
Possible outcomes: active, inactive

- CC(=O)Nc1ccc(C(=O)CCl)cc1: inactive
- CCOC(=O)[C@@H](C)C[C@H](Cc1ccccc1)NC(=O)c1csc([C@@H](C[C@H](C(C)C)N(C)C(=O)[C@@H](NC(=O)[C@H]2CCCCN2C)C(C)(C)CC)OC(C)=O)n1: active
- COc1cc2cc(Oc3ccc(NC(=O)Nc4cc(C(F)(F)F)cc(C(F)(F)F)c4)cc3)c(C)nc2cc1OCCN1CCOCC1: inactive
- O=C(Nc1ccc(Oc2ccc3nc(NC(=O)c4ccco4)[nH]c3c2)cc1)Nc1cc(C(F)(F)F)ccc1F: inactive
- Clc1nccc2c(-c3csc(-c4c[nH]c5ccc(Br)cc45)n3)c[nH]c12: inactive
